- tested.system: hCA II (Homo sapiens)
- Construct: gene CA2; recombinant, cytosolic isoform
- assay.text: stopped-flow CO2 hydration assay
- Format: biochemical
- conditions.used: CO2 hydration, […] Hepes pH […] °C, […] Na2SO4 or NaClO4, […] min preincubation
quantity: Ki
Remember to follow the number with its unit.

Kindly note the recorded Ki for COc1cccc2ccc(C(=O)Nc3ccc(S(N)(=O)=O)cc3)nc12 [5h] , which is 33 nM
